Below, each entry is listed with its recorded REVEAL binding score, HLA-type B8.
Tested on: HLA-B8
measurementProtocol: REVEAL binding assay
assayContext: score as percentage of the signal generated by the positive control peptide
Your answer should be a plain number; it is taken to be in %.

Record excerpt, results attached:
sequenceCode | targetUnderTest | measuredValue
NLGKVIDTL | HLA-B8 | 16.86
LPAVGAPIG | HLA-B8 | 15.87
QIVGGVYLL | HLA-B8 | 13.15
TFSIYLIVS | HLA-B8 | 9.52
YATGNLPGC | HLA-B8 | 9.51

Q: Would you mind telling me what REVEAL binding score, HLA-type B8 value was observed for `VTGNIPGST` ?
A: 13.12

Q: Would you mind telling me what REVEAL binding score, HLA-type B8 value was observed for `VIDTLTCGF` ?
A: 10.00

###

Tested on: HLA-B8
measurementProtocol: REVEAL binding assay
assayContext: score as percentage of the signal generated by the positive control peptide
Where no end group is shown, it is not given here. [ ]: non-standard residue; d: D form. Nle = CCCC[C@H](N)C(=O)O
Below, each entry is listed with its recorded REVEAL binding score, HLA-type B8.
Express the reported value numerically, then name its unit.

Record excerpt, results attached:
substance | REVEAL binding score, HLA-type B8
RNLGRVIET | 15.51%
IRVIAHGLR | 13.34%
GGQIVGGVY | 14.66%
GYIPLVGAP | 15.94%
EL[Nle]GYIPLI | 17.05%
LGKVIDTLT | 17.96%
VIRVIAHGL | 32.81%
IGGNYLIPR | 14.23%

Q: Notebook: pull reported REVEAL binding score, HLA-type B8 for HLA-B8, entry `NIPGSTYSL`
A: 7.66%

Q: Notebook: pull reported REVEAL binding score, HLA-type B8 for HLA-B8, entry `YIPLVGAPL`
A: 33.10%

Q: Notebook: pull reported REVEAL binding score, HLA-type B8 for HLA-B8, entry `GRVIETLTS`
A: 12.91%

Q: Notebook: pull reported REVEAL binding score, HLA-type B8 for HLA-B8, entry `GNIPGSTYS`
A: 6.32%

###

Tested on: HLA-B35
measurementProtocol: REVEAL binding assay
assayContext: score as percentage of the signal generated by the positive control peptide
Where no end group is shown, it is not given here. [ ]: non-standard residue; d: D form. Nle = CCCC[C@H](N)C(=O)O
experimentalReadout: REVEAL binding score, HLA-type B35 (%)
Your answer should be a plain number; it is taken to be in %.

Record excerpt, results attached:
substance | targetUnderTest | measuredValue
LPAVGAPIG | HLA-B35 | 1.06
RNLGKVIDT | HLA-B35 | 4.40
NYATGNLPG | HLA-B35 | 6.44
GNIPGSTYS | HLA-B35 | 7.86
ADLMGYIPL | HLA-B35 | 2.08

Q: Would you mind telling me what REVEAL binding score, HLA-type B35 value was observed for `PRLGVRATR` ?
A: 1.65

Q: Would you mind telling me what REVEAL binding score, HLA-type B35 value was observed for `EL[Nle]GYIPLI` ?
A: 2.55

Q: Would you mind telling me what REVEAL binding score, HLA-type B35 value was observed for `TGNIPGSTY` ?
A: 48.40

Q: Would you mind telling me what REVEAL binding score, HLA-type B35 value was observed for `IPLVGAPLG` ?
A: 30.74

Q: Would you mind telling me what REVEAL binding score, HLA-type B35 value was observed for `YVTGNIPGS` ?
A: 4.42

Q: Would you mind telling me what REVEAL binding score, HLA-type B35 value was observed for `RNLGRVIET` ?
A: 2.34

###

Below, each entry is listed with its recorded REVEAL binding score, HLA-type B27.
targetUnderTest: HLA-B27 (Homo sapiens, UniProt P01889, D138H/D201E/E176V/E204Q/G107R/H137Y/K202T/N104T/N87E/Q56L/Q94K/R106L/R155S/R180L/S101D/S121N/S48T/Y140D/Y33H/Y91C)
measurementProtocol: REVEAL binding assay
assayContext: score as percentage of the signal generated by the positive control peptide
Where no end group is shown, it is not given here. [ ]: non-standard residue; d: D form. Cit = NC(=O)NCCC[C@H](N)C(=O)O
Your answer should be a plain number; it is taken to be in %.

substance | measuredValue
LGKVIDTLT | 2.90
GKVIDTLTC | 0.84
NLGRVIETL | 1.66
IIGGNYLIP | 0.97
RALAHGVRV | 6.37

Q: Would you mind telling me what REVEAL binding score, HLA-type B27 value was observed for `RVIAHGLRL` ?
A: 15.57

Q: Would you mind telling me what REVEAL binding score, HLA-type B27 value was observed for `ATGNLPGCS` ?
A: 2.56

Q: Would you mind telling me what REVEAL binding score, HLA-type B27 value was observed for `P[Cit]IGVRAT[Cit]` ?
A: 0.94

###

targetUnderTest: HLA-A3 (Homo sapiens)
Sequence (P04439 25-299): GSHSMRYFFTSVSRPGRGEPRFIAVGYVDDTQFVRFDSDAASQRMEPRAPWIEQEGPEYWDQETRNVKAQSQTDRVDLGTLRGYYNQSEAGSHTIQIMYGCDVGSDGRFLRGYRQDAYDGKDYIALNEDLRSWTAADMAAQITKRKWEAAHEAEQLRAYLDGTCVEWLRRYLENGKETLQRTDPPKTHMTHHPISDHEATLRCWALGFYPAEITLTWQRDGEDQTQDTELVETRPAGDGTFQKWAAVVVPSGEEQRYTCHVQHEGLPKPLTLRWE
Sequence (P61769 21-119, further chain): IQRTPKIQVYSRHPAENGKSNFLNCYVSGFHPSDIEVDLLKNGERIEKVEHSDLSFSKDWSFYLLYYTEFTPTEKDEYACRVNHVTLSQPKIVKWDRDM
measurementProtocol: REVEAL binding assay
assayContext: score as percentage of the signal generated by the positive control peptide
Where no end group is shown, it is not given here. [ ]: non-standard residue; d: D form. Nle = CCCC[C@H](N)C(=O)O
experimentalReadout: REVEAL binding score, HLA-type A3 (%)
Your answer should be a plain number; it is taken to be in %.

Record excerpt, results attached:
substance | targetUnderTest | REVEAL binding score, HLA-type A3 / %
VARALAHGV | HLA-A3 (Homo sapiens) | 2.77
IRNLGRVIE | HLA-A3 (Homo sapiens) | 3.89
[Nle]GYIPLIGA | HLA-A3 (Homo sapiens) | 3.13
RVIETLTSG | HLA-A3 (Homo sapiens) | 2.23
GQIIGGNYL | HLA-A3 (Homo sapiens) | 3.01

Q: Would you mind telling me what REVEAL binding score, HLA-type A3 value was observed for `EL[Nle]GYIPLI` ?
A: 4.54

Q: Would you mind telling me what REVEAL binding score, HLA-type A3 value was observed for `QIIGGNYLI` ?
A: 6.30

###

Tested on: HLA-A24
measurementProtocol: REVEAL binding assay
assayContext: score as percentage of the signal generated by the positive control peptide
Where no end group is shown, it is not given here. [ ]: non-standard residue; d: D form. Nle = CCCC[C@H](N)C(=O)O
experimentalReadout: REVEAL binding score, HLA-type A24 (%)
Your answer should be a plain number; it is taken to be in %.

Record excerpt, results attached:
substance | REVEAL binding score, HLA-type A24 (%)
VIDTLTCGF | 0.95
EL[Nle]GYIPLI | 0.92
[Nle]GYIPLIGA | 1.33
RLGVRATRK | 0.28

Q: Would you mind telling me what REVEAL binding score, HLA-type A24 value was observed for `QIVGGVYLL` ?
A: 1.01

###

targetUnderTest: HLA-B7 (Homo sapiens, UniProt P01889)
Sequence (P61769 21-119): as the sequence (P61769 21-119, further chain) above
Sequence (P01889 25-299): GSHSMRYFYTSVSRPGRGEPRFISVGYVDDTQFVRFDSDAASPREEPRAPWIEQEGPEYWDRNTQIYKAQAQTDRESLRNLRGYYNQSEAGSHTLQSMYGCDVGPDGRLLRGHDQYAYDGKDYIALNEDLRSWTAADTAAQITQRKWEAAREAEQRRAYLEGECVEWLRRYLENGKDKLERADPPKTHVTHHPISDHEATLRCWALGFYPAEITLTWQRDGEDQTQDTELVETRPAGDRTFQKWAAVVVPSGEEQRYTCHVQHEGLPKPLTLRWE
measurementProtocol: REVEAL binding assay
assayContext: score as percentage of the signal generated by the positive control peptide
Where no end group is shown, it is not given here. [ ]: non-standard residue; d: D form. Cit = NC(=O)NCCC[C@H](N)C(=O)O; Nle = CCCC[C@H](N)C(=O)O
Values of REVEAL binding score, HLA-type B7 strictly less than 5% map to MET, and values of at least 5% map to NOT MET.

substance | group
[Cit]IGVRAT[Cit]R | NOT MET
LMGYIPLVG | MET

Q: Quick check: REVEAL binding score, HLA-type B7 of `PRLGVRATR` under 5%?
A: NOT MET

Q: Quick check: REVEAL binding score, HLA-type B7 of `IRNLGRVIE` under 5%?
A: MET

Q: Quick check: REVEAL binding score, HLA-type B7 of `GQIVGGVYL` under 5%?
A: NOT MET

Q: Quick check: REVEAL binding score, HLA-type B7 of `L[Nle]GYIPLIG` under 5%?
A: MET

Q: Quick check: REVEAL binding score, HLA-type B7 of `ARALAHGVR` under 5%?
A: MET

###

System: HLA-B14
measurementProtocol: REVEAL binding assay
assayContext: score as percentage of the signal generated by the positive control peptide
Where no end group is shown, it is not given here. [ ]: non-standard residue; d: D form. Nle = CCCC[C@H](N)C(=O)O
Below, each entry is listed with its recorded REVEAL binding score, HLA-type B14.
Express the reported value numerically, then name its unit.

substance | measuredValue
QIVGGVYLL | 0.37%
IRNLGRVIE | 30.77%
NLGRVIETL | 0.07%
YLPAVGAPI | 0.12%

Q: Would you mind telling me what REVEAL binding score, HLA-type B14 value was observed for `GYIPLVGAP` ?
A: 0.47%

Q: Would you mind telling me what REVEAL binding score, HLA-type B14 value was observed for `LGKVIDTLT` ?
A: 0.43%

Q: Would you mind telling me what REVEAL binding score, HLA-type B14 value was observed for `VTGNIPGST` ?
A: 0.75%

Q: Would you mind telling me what REVEAL binding score, HLA-type B14 value was observed for `SRNLGKVID` ?
A: 0.67%

Q: Would you mind telling me what REVEAL binding score, HLA-type B14 value was observed for `NIPGSTYSL` ?
A: 0.46%

Q: Would you mind telling me what REVEAL binding score, HLA-type B14 value was observed for `GQIVGGVYL` ?
A: 0.37%

Q: Would you mind telling me what REVEAL binding score, HLA-type B14 value was observed for `EL[Nle]GYIPLI` ?
A: 0.14%
